experimentDescription: self-splicing fitness, log relative to wild type (ln ratio); higher = more splicing; Tetrahymena group I intron in knt gene, E. coli kanamycin selection, DiMSum; sequences stand for … in CUCUCU…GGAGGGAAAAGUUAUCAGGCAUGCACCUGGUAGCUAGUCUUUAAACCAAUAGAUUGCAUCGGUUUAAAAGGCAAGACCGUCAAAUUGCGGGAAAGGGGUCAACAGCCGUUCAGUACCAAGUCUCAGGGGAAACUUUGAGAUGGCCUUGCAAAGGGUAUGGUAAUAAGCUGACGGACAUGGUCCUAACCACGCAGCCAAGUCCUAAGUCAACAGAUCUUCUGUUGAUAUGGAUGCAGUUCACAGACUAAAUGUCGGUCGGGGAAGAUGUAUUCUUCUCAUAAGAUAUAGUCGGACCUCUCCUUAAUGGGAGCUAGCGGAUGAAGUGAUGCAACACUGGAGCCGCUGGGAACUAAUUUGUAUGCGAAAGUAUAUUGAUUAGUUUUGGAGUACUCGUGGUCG;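 further: selection with 25 µg/mL kanamycin versus none on LB agar overnight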
conditionDetails: 30 °C
Is self-splicing fitness (ln) at least -2? Then class 1. If not, class 0.

In plain terms: is recorded self-splicing fitness (ln) at least -2 for `GGAUAGCAAUAUUACGGCUG` ? class 1

In plain terms: is recorded self-splicing fitness (ln) at least -2 for `CGCAAGCAAUAUUACGUCCG` ? class 1

In plain terms: is recorded self-splicing fitness (ln) at least -2 for `UCAAAGCAAUAUUACGGCAC` ? class 0

In plain terms: is recorded self-splicing fitness (ln) at least -2 for `UACGAGCAAUAUUACGCCGU` ? class 0

In plain terms: is recorded self-splicing fitness (ln) at least -2 for `GCAUAGCAAUAUUACGUCCG` ? class 1

In plain terms: is recorded self-splicing fitness (ln) at least -2 for `UUUAAGCAAUAUUACGACCU` ? class 1

In plain terms: is recorded self-splicing fitness (ln) at least -2 for `CAAGAGCAAUAUUACGGCUG` ? class 1

In plain terms: is recorded self-splicing fitness (ln) at least -2 for `GCUAAGCAAUAUUACGGAAG` ? class 1

----------
experimentDescription: self-splicing fitness, log relative to wild type (ln ratio); higher = more splicing; Tetrahymena group I intron in knt gene, E. coli kanamycin selection, DiMSum; sequences stand for … in CUCUCU…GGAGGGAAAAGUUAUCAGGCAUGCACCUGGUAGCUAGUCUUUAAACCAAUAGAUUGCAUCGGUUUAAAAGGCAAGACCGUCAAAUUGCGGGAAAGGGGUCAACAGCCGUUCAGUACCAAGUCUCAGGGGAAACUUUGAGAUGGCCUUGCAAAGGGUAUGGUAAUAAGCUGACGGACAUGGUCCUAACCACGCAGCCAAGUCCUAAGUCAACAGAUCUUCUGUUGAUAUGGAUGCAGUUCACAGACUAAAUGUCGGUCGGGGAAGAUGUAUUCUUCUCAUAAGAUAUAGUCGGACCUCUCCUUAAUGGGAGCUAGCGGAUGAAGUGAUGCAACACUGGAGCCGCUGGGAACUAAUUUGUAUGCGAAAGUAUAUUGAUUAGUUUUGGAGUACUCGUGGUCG
conditionDetails: 37 °C
For each record, write down the corresponding self-splicing fitness (ln).
Quick one: just the number, no unit, thanks!

# get_value(readout='self-splicing fitness (ln)', item= `UACCAGCAAUAUUACGAUUG` ) -1.35

# get_value(readout='self-splicing fitness (ln)', item= `GUGAAGCAAUAUUACGAUCG` ) 0.218

# get_value(readout='self-splicing fitness (ln)', item= `UGGGAGCAAUAUUACGACGU` ) -2.37

# get_value(readout='self-splicing fitness (ln)', item= `GUAUAGCAAUAUUACGGUUA` ) -0.761

# get_value(readout='self-splicing fitness (ln)', item= `UGACAGCAAUAUUACGGAUC` ) -2.21

# get_value(readout='self-splicing fitness (ln)', item= `UUAAAGCAAUAUUACGAACU` ) -0.0402

# get_value(readout='self-splicing fitness (ln)', item= `CUUGAGCAAUAUUACGUUGG` ) -0.601

# get_value(readout='self-splicing fitness (ln)', item= `CGGUAGCAAUAUUACGAGCU` ) -1.89

----------
experimentDescription: self-splicing fitness, log relative to wild type (ln ratio); higher = more splicing; Tetrahymena group I intron in knt gene, E. coli kanamycin selection, DiMSum; sequences stand for … in CUCUCU…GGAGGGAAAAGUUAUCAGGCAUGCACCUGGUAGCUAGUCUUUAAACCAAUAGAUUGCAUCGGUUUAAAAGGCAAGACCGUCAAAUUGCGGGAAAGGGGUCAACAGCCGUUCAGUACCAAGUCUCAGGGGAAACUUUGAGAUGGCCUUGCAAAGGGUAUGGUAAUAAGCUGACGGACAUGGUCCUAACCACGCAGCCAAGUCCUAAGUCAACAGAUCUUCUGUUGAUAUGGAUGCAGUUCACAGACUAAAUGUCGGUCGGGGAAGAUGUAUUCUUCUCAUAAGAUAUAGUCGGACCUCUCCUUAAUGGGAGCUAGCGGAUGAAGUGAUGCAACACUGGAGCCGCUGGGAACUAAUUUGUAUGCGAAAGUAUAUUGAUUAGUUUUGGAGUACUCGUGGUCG
conditionDetails: 37 °C
Is self-splicing fitness (ln) at least -0.8? Then true. If not, false.

In plain terms: is recorded self-splicing fitness (ln) at least -0.8 for `CCGUAGCAAUAUUACGCAGG` ? false

In plain terms: is recorded self-splicing fitness (ln) at least -0.8 for `GUCGAGCAAUAUUACGAAGC` ? false

In plain terms: is recorded self-splicing fitness (ln) at least -0.8 for `CAAUAGCAAUAUUACGCGCU` ? false

In plain terms: is recorded self-splicing fitness (ln) at least -0.8 for `UUUCAGCAAUAUUACGUGUA` ? false

In plain terms: is recorded self-splicing fitness (ln) at least -0.8 for `AAGAAGCAAUAUUACGAUGG` ? false

In plain terms: is recorded self-splicing fitness (ln) at least -0.8 for `UGCAAGCAAUAUUACGGGCG` ? true

In plain terms: is recorded self-splicing fitness (ln) at least -0.8 for `GGAAAGCAAUAUUACGUGGG` ? false

In plain terms: is recorded self-splicing fitness (ln) at least -0.8 for `UAUCAGCAAUAUUACGGAUU` ? true

In plain terms: is recorded self-splicing fitness (ln) at least -0.8 for `UUCCAGCAAUAUUACGAUAA` ? true

In plain terms: is recorded self-splicing fitness (ln) at least -0.8 for `CCUCAGCAAUAUUACGCCCG` ? true

In plain terms: is recorded self-splicing fitness (ln) at least -0.8 for `GCUCAGCAAUAUUACGGUAU` ? true

In plain terms: is recorded self-splicing fitness (ln) at least -0.8 for `CCUGAGCAAUAUUACGCAAU` ? false

In plain terms: is recorded self-splicing fitness (ln) at least -0.8 for `GACAAGCAAUAUUACGGAUA` ? false

In plain terms: is recorded self-splicing fitness (ln) at least -0.8 for `CGAGAGCAAUAUUACGACCG` ? false

----------
experimentDescription: self-splicing fitness, log relative to wild type (ln ratio); higher = more splicing; Tetrahymena group I intron in knt gene, E. coli kanamycin selection, DiMSum; sequences stand for … in CUCUCU…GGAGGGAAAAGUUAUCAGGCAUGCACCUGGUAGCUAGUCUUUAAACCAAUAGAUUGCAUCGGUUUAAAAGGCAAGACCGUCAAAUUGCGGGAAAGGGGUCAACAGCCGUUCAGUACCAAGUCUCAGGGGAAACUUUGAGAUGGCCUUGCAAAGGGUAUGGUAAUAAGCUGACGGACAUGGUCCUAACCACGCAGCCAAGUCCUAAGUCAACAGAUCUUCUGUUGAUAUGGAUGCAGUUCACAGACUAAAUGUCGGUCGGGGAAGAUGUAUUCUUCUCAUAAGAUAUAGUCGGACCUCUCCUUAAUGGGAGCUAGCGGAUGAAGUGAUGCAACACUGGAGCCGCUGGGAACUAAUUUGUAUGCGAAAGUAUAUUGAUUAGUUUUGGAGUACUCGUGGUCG
conditionDetails: 37 °C
outcomeMeasure: self-splicing fitness (ln)
Quick one: just the number, no unit, thanks!

# get_value(readout='self-splicing fitness (ln)', item= `UAGUAGCAAUAUUACGGGGC` ) -2.68

# get_value(readout='self-splicing fitness (ln)', item= `AGAUAGCAAUAUUACGUGUU` ) -1.1

# get_value(readout='self-splicing fitness (ln)', item= `GCUGAGCAAUAUUACGUGAG` ) -1.28

# get_value(readout='self-splicing fitness (ln)', item= `GCCGAGCAAUAUUACGUCUC` ) -1.44

# get_value(readout='self-splicing fitness (ln)', item= `GUGAAGCAAUAUUACGACCA` ) 0.84

# get_value(readout='self-splicing fitness (ln)', item= `UGUCAGCAAUAUUACGCAUA` ) 0.0762

# get_value(readout='self-splicing fitness (ln)', item= `UGGCAGCAAUAUUACGUGAC` ) -1.22

# get_value(readout='self-splicing fitness (ln)', item= `GCACAGCAAUAUUACGUAGU` ) -0.516

# get_value(readout='self-splicing fitness (ln)', item= `UCUAAGCAAUAUUACGGGCA` ) -0.441

# get_value(readout='self-splicing fitness (ln)', item= `GAGAAGCAAUAUUACGAACC` ) -0.188

# get_value(readout='self-splicing fitness (ln)', item= `ACUAAGCAAUAUUACGUUCU` ) -0.412

# get_value(readout='self-splicing fitness (ln)', item= `AGGGAGCAAUAUUACGACGU` ) -1.63

# get_value(readout='self-splicing fitness (ln)', item= `CAGGAGCAAUAUUACGUGGG` ) -2.31

# get_value(readout='self-splicing fitness (ln)', item= `CGUCAGCAAUAUUACGGAAA` ) -2.38

# get_value(readout='self-splicing fitness (ln)', item= `GAAUAGCAAUAUUACGGAUU` ) -0.4

# get_value(readout='self-splicing fitness (ln)', item= `GCCAAGCAAUAUUACGGCCU` ) -1.67

# get_value(readout='self-splicing fitness (ln)', item= `GACGAGCAAUAUUACGUCUC` ) -1.23

# get_value(readout='self-splicing fitness (ln)', item= `AACGAGCAAUAUUACGGCCG` ) -1.07

# get_value(readout='self-splicing fitness (ln)', item= `UGAAAGCAAUAUUACGUUAU` ) -1.76

# get_value(readout='self-splicing fitness (ln)', item= `UAACAGCAAUAUUACGUUGU` ) -2.67

# get_value(readout='self-splicing fitness (ln)', item= `UAAGAGCAAUAUUACGUCUG` ) -0.00255

# get_value(readout='self-splicing fitness (ln)', item= `AACAAGCAAUAUUACGCUGA` ) -1.01

# get_value(readout='self-splicing fitness (ln)', item= `CUUAAGCAAUAUUACGCGAA` ) -2.82

# get_value(readout='self-splicing fitness (ln)', item= `GACAAGCAAUAUUACGAACA` ) -0.000414

# get_value(readout='self-splicing fitness (ln)', item= `GAAUAGCAAUAUUACGAAUA` ) -1.57

# get_value(readout='self-splicing fitness (ln)', item= `AACUAGCAAUAUUACGGAGA` ) -1.35

# get_value(readout='self-splicing fitness (ln)', item= `GAGCAGCAAUAUUACGUCUC` ) -2.23

# get_value(readout='self-splicing fitness (ln)', item= `GGCUAGCAAUAUUACGUUCA` ) 0.156

# get_value(readout='self-splicing fitness (ln)', item= `UUAAAGCAAUAUUACGAAAA` ) -0.761

# get_value(readout='self-splicing fitness (ln)', item= `CGGUAGCAAUAUUACGGGGG` ) -3.01

# get_value(readout='self-splicing fitness (ln)', item= `CCCAAGCAAUAUUACGCGCA` ) -2.72

# get_value(readout='self-splicing fitness (ln)', item= `GUCCAGCAAUAUUACGAAAA` ) -0.701

# get_value(readout='self-splicing fitness (ln)', item= `AUUCAGCAAUAUUACGAUCU` ) 0.457

# get_value(readout='self-splicing fitness (ln)', item= `ACCUAGCAAUAUUACGUAGG` ) -2.93
